Reference for the values: ChEMBL document CHEMBL1201862

Tested on: SK-MEL-5
Assay: NCI tumour cell line growth inhibition, 48 h
Activity calls are given as the source filed them. No stated cut-off is given here; in the data, active = GI50 up to about 1.1 µM and inactive = higher. Residues, ends and D or L forms follow the SMILES beside them. *: point of attachment. Boc = CC(C)(C)OC(=O)*; OBn = c1ccc(CO*)cc1
Kindly state GI50 for each of the entries shown.

Reference set, count: 5
>  <compound>
CN(C(=O)OC(C)(C)C)[C@H]1CCCC[C@H]1N1CCCC1

>  <GI50>
> 100 µM (inactive)

$$$$
>  <compound>
CC(=O)OC1C(COC(N)=O)OC(n2c(-c3ccc(C)cc3)cc(-c3ccccc3)c(C#N)c2=O)C(OC(C)=O)C1OC(C)=O (centres undefined)

>  <GI50>
> 100 µM (inactive)

$$$$
>  <compound>
CSc1ncc2c(n1)-c1ccccc1OC2N1CCOCC1 (centres undefined)

>  <GI50>
40.4 µM (inactive)

$$$$
>  <compound>
COC(=O)/C(=C\c1ccc(N(CCC#N)CCC#N)cc1)NC(=O)c1cc([N+](=O)[O-])ccc1Cl

>  <GI50>
> 100 µM (inactive)

$$$$
>  <compound>
CC(=O)Oc1c(C)cc2c(c1C)C(C)CN2C(C)=O (centres undefined)

>  <GI50>
> 100 µM (inactive)

$$$$

Working through the 4 compounds below one at a time, give GI50 for each.
1. CSCCC(NC(=O)Cc1ccc(C(=O)c2ccccc2)cc1)C(=O)O (centres undefined)
2. C[C@@H](NC1CCC[C@H]1O)c1ccccc1 (some centres undefined)
3. CC(C)CC(NC(=O)OC(C)(C)C)C(=O)NC(CC(=O)OCc1ccccc1)C(=O)OCc1ccccc1 (stereo not drawn) (Boc-Leu-Asp(OBn)-OBn; configuration not given here)
4. CCOP(=O)(OCC)C1CCCCOC1=O (centres undefined)

1. > 100 µM (inactive)
2. > 100 µM (inactive)
3. 24.7 µM (inactive)
4. > 100 µM (inactive)
